assay: pKa values; type: physicochemical; conditions: read-out: pKa values (second value)
recorded_endpoint: pKa
One number for each entry.

Given item Cc1nn(C)c2nc(N)[nH]c(=O)c2c1=O [CH3] , the value recorded as its pKa is 8.6

###

assay: pKa values; format: physicochemical; conditions: read-out: pKa values (first value)
recorded_endpoint: pKa
Answers are plain numbers.

Given item Cc1nn(C)c2nc(N)[nH]c(=O)c2c1=O , the value recorded as its pKa is 4.1

###

I'd appreciate it if you could supply IC50 values for the items below.
Target: dihydropteroic acid biosynthesis (DHPB): hydroxymethyldihydropteridine pyrophosphokinase and dihydropteroate synthetase
Assay: coupled assay of dihydropteroic acid biosynthesis (kinase + synthetase), 14C H2pteroate formation
Format: biochemical
Details: coupled assay method; E. coli extract, 0-50% ammonium sulfate fraction; 14C in H2 pteroate from p-aminobenzoate-7-14C; read-out: Concentration in μM required to give 50% inhibition of DHPB
Text: Potential inhibitors of DHPB synthesis may be tested by investigating the inhibitory effect they impose in the enzymes responsible for the biosynthesis of dihydropteroic acid (DPtA), namely hydroxymethyldihydropteridine pyrophosphokinase (HMPPS), and dihydropteroate synthetase, hereinafter referred to as `synthetase`. In the following reaction equations the compounds are referred to by their abbreviated forms defined hereinbefore in the specification. [formula] […]
Structures can show the parent of a compound that is named as a salt.
Answers are plain numbers, in µM.

Recorded results for 8 compounds are shown here.
# compound, recorded_endpoint, measured_result
rows = [
    ("CCOC(=O)CCc1nn(C)c2nc(N)[nH]c(=O)c2c1=O", "IC50", 16),
    ("CCCc1nn(C)c2nc(N)[nH]c(=O)c2c1=O", "IC50", 45),
    ("Cn1nc(CO)c(=O)c2c(=O)[nH]c(N)nc21 [CH2 OH, Sodium Salt]", "IC50", 12),
    ("Cn1nc(CCC(=O)O)c(=O)c2c(=O)[nH]c(N)nc21", "IC50", 5.5),
    ("CCCCCCc1nn(C)c2nc(N)[nH]c(=O)c2c1=O", "IC50", 50),
    ("CC(C)Cc1nn(C)c2nc(N)[nH]c(=O)c2c1=O", "IC50", 20),
    ("COc1cc(CC(C#N)c2nn(C)c3nc(N)nc(O)c3c2=O)cc(OC)c1OC (centres unmarked)", "IC50", 11),
    ("Cn1nc(-c2c[nH]c3ccccc23)c(=O)c2c(=O)[nH]c(N)nc21", "IC50", 30),
]

// for each compound in input: emit IC50
1. COC(C(=O)O)c1nn(C)c2nc(N)nc(O)c2c1=O (centres unmarked)
2. CCOC(=O)C(C)c1nn(C)c2nc(N)[nH]c(=O)c2c1=O (centres unmarked)
3. CC(=O)OCc1nn(C)c2nc(N)[nH]c(=O)c2c1=O
4. CCOC(=O)Cc1nn(C)c2nc(N)nc(O)c2c1=O
5. CCc1nn(C)c2nc(N)[nH]c(=O)c2c1=O
6. COc1cc(OC)c(C(=O)Cc2nn(C)c3nc(N)[nH]c(=O)c3c2=O)c(OC)c1

Result:
1. 2.8
2. 1.6
3. 15
4. 6.2
5. 33
6. 2.7

// for each compound in input: emit IC50
1. COc1cc(Cc2nn(C)c3nc(N)nc(O)c3c2=O)cc(OC)c1OC
2. COc1ccc(C(=O)Cc2nn(C)c3nc(N)[nH]c(=O)c3c2=O)cc1OC
3. Cn1nc(Cc2ccccc2)c(=O)c2c(O)nc(N)nc21
4. Cn1nc(C(=O)O)c(=O)c2c(=O)[nH]c(N)nc21 [CO2 H (disodium salt)]
5. Cn1nc(-c2ccccc2)c(=O)c2c(O)nc(N)nc21
6. COc1ccc(Cc2nn(C)c3nc(N)nc(O)c3c2=O)cc1OC

Result:
1. 0.77
2. 0.15
3. 11
4. 21
5. 15
6. 0.86

// for each compound in input: emit IC50
1. CCOC(=O)C(OC)c1nn(C)c2nc(N)[nH]c(=O)c2c1=O (centres unmarked)
2. COc1ccc(OC)c(C(=O)Cc2nn(C)c3nc(N)[nH]c(=O)c3c2=O)c1
3. Cc1nn(C)c2nc(N)[nH]c(=O)c2c1=O
4. CC(C(=O)O)c1nn(C)c2nc(N)[nH]c(=O)c2c1=O (centres unmarked) [CH(CH3)CO2 H, Disodium Salt]
5. COc1cc(C(=O)Cc2nn(C)c3nc(N)[nH]c(=O)c3c2=O)cc(OC)c1OC
6. Cn1nc(CC(=O)c2ccccc2)c(=O)c2c(=O)[nH]c(N)nc21
7. COc1ccc(C(=O)Cc2nn(C)c3nc(N)[nH]c(=O)c3c2=O)c(OC)c1

Result:
1. 17
2. 0.06
3. 16
4. 3.7
5. 0.03
6. 0.76
7. 0.14

// for each compound in input: emit IC50
1. Cn1nc(Cc2ccccc2[N+](=O)[O-])c(=O)c2c(O)nc(N)nc21
2. Cn1nc(CC(=O)c2cccc(O)c2)c(=O)c2c(=O)[nH]c(N)nc21

Result:
1. 12
2. 0.22
